Values compiled from ChEMBL document CHEMBL5344404.

# measured-target: Estrogen receptor/E3 ubiquitin-protein ligase XIAP (Homo sapiens, UniProt P03372+P98170)
# Sequence (P03372 whole entry): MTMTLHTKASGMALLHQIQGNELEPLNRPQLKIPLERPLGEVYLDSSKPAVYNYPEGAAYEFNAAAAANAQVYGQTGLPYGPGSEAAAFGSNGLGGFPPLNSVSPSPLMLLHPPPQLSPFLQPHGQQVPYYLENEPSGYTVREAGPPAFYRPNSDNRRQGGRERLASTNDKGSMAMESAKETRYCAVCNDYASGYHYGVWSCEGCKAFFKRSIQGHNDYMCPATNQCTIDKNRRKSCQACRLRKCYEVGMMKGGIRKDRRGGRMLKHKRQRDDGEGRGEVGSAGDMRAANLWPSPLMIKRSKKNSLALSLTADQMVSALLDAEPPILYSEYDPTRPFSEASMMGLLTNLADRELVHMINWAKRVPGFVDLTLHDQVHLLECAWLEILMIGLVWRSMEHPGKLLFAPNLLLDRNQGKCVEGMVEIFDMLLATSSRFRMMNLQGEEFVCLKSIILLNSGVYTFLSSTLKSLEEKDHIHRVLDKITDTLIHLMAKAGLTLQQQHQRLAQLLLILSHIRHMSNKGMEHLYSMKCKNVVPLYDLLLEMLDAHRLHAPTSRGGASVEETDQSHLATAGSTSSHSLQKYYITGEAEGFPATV
# Sequence (P98170 whole entry): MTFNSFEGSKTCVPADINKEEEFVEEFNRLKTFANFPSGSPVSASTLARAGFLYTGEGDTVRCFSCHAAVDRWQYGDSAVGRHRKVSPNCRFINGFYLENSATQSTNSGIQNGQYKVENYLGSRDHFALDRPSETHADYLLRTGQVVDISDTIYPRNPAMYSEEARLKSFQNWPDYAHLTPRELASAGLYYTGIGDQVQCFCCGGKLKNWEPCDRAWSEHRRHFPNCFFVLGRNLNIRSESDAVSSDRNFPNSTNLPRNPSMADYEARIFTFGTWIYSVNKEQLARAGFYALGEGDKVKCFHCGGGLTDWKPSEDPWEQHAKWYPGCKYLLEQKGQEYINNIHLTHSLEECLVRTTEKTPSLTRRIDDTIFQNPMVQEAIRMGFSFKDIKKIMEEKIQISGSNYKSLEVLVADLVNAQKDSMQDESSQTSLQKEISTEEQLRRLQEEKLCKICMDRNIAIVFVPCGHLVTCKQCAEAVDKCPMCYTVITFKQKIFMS
# test-summary: PROTAC activity at XIAP/ERalpha (unknown origin)
readout-kind: EC50 (nM)
One number for each entry, in nM.

Read off the recorded EC50 for CC/C(=C(\c1ccc(O)cc1)c1ccc(OCCN(C)C(=O)COCCOCCOCCOc2cccc(C(=O)c3csc([C@@H]4CCCN4C(=O)[C@@H](NC(=O)[C@H](C)NC)C4CCCCC4)n3)c2)cc1)c1ccccc1 10
